Assay: Test 4: concentration of the test compounds in plasma
Format: in vivo
Conditions: mouse, po, 25 mg/kg, 25 mg/kg po, 2 hr, mean of 3, read-out: Concentration in plasma, mean
reported_property: concentration at 2 hr (ng/mL)
Record the value in ng/mL, omitting the unit from your answer.

Prompt line: Can you look up the measured concentration at 2 hr of CN1CCN(C(=O)c2c(C(F)(F)F)oc3c2C(=O)c2ccccc2C3=O)CC1 [Example 8] for me?
Response line: 455

###

Assay: Test 5: concentration of the test compounds in tumor
Format: in vivo
Conditions: mouse, po, 25 mg/kg, 25 mg/kg po, 2 hr, animal 2, read-out: Concentration in tumor, animal 2
reported_property: concentration at 2 hr (ng/mL)
Record the value in ng/mL, omitting the unit from your answer.

Prompt line: Can you look up the measured concentration at 2 hr of CN1CCN(C(=O)c2c(C(F)(F)F)oc3c2C(=O)c2ccccc2C3=O)CC1 for me?
Response line: 260
